The reported measurements were obtained from patent US9580416B2.

Here we list compounds with their recorded IC50 when tested on EGFR (Homo sapiens).
Sequence (P00533 25-1210): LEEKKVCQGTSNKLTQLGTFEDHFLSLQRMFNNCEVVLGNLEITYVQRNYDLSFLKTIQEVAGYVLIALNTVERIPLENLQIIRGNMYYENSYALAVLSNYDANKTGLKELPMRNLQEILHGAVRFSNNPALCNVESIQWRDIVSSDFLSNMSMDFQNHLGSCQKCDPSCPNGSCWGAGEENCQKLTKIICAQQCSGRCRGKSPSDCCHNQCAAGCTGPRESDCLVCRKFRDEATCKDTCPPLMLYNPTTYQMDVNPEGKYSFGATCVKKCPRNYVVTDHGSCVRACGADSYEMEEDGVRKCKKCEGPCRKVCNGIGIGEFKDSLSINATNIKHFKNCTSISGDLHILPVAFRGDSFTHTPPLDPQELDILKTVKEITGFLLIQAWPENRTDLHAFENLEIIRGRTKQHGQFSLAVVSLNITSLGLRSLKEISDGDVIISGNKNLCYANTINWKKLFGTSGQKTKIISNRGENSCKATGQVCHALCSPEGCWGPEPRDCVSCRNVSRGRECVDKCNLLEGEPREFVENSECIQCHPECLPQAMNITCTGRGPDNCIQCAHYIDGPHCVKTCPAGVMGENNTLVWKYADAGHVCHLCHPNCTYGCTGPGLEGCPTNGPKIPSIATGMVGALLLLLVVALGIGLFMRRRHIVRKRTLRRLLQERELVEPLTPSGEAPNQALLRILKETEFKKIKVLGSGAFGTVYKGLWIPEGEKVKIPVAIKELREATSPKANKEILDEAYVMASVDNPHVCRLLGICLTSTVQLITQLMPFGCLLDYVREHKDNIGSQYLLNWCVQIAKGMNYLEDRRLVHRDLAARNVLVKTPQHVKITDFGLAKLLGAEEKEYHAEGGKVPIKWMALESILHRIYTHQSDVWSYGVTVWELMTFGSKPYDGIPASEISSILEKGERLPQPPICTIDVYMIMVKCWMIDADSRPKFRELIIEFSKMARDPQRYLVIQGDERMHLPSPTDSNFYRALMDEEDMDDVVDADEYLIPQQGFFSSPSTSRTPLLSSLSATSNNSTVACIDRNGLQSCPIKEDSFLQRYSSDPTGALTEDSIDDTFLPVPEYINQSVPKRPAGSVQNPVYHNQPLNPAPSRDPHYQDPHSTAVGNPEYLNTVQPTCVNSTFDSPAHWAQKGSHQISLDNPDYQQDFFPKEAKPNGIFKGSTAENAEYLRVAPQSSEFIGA
Readout: IC50

Smiles Input	Data Value
Cc1cc(NC(=O)c2cccc(Oc3ccnc4[nH]nc(N[C@H]5CCN(C(=O)C6CC6)C5)c34)c2)ccc1C(C)C	> 10 µM
Cc1ccnc(NC(=O)c2ccc(Oc3ccnc4[nH]nc(N[C@@H]5CCCN(C(=O)C6(C)CCN(C)CC6)C5)c34)cc2)c1	> 10 µM
C=CC(=O)N1CCC[C@@H](Nc2n[nH]c3nccc(Oc4ccc(NC(=O)Nc5cc(C(F)(F)F)ccn5)cc4)c23)C1	< 0.1 µM

* * *

# Target Or Test System: Lck (Homo sapiens)
# Sequence (P06239 whole entry, species assumed): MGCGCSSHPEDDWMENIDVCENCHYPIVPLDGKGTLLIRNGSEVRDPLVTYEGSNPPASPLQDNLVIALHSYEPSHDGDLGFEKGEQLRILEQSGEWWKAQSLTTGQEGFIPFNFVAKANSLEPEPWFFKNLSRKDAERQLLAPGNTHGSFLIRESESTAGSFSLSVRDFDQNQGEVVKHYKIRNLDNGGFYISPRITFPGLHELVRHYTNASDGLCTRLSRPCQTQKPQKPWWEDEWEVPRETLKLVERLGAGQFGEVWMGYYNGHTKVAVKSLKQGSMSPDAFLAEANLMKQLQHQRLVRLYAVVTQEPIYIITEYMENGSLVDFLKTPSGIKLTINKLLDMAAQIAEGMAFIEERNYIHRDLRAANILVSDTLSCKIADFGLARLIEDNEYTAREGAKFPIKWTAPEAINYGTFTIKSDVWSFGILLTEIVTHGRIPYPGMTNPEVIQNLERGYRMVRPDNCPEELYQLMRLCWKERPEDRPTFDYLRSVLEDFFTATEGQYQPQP
# Protocol Text: Lck kinase activity, TR-FRET assay
# Assay type: biochemical
# Settings: read-out: LCK (IC50)
pIC50: −log10 of the molar value.

Compound	pIC50
CCNC(=O)N1CCC[C@@H](Nc2n[nH]c3nccc(Oc4ccc(-c5nc6ccccc6s5)cc4)c23)C1	5.00 to 6.00
Cc1cnc(NC(=O)c2ccc(Oc3ccnc4[nH]nc(C5CCCN(C(=O)C6CC6)C5)c34)cc2)s1 (stereo not shown)	< 5.00
Cc1ccnc(NC(=O)c2ccc(Oc3ccnc4[nH]nc(N[C@@H]5CCCN(C(=O)c6ccc(Cl)cc6)C5)c34)cc2)c1	5.00 to 6.00
CN(C)CCCC(=O)N1CCC[C@@H](Nc2n[nH]c3nccc(Oc4ccc(C(=O)Nc5nc6ccccc6s5)cc4)c23)C1	> 7.00
Cc1cc(NC(=O)c2ccc(Oc3ccnc4[nH]nc(N[C@@H]5CCCN(C(=O)/C=C/CN(C)C6CC6)C5)c34)cc2)nn1C	< 5.00
CNC(=O)/C(F)=C/c1cccc(Nc2n[nH]c3nccc(Oc4ccc(Oc5ccccc5)cc4)c23)c1	6.00 to 7.00
CC(=O)N1CCC[C@@H](Oc2n[nH]c3nccc(Nc4cccc(C(=O)Nc5ccc(C(C)C)c(C)c5)c4)c23)C1	5.00 to 6.00
